Molecular target: UniProt P33261
Sequence (P33261 whole entry): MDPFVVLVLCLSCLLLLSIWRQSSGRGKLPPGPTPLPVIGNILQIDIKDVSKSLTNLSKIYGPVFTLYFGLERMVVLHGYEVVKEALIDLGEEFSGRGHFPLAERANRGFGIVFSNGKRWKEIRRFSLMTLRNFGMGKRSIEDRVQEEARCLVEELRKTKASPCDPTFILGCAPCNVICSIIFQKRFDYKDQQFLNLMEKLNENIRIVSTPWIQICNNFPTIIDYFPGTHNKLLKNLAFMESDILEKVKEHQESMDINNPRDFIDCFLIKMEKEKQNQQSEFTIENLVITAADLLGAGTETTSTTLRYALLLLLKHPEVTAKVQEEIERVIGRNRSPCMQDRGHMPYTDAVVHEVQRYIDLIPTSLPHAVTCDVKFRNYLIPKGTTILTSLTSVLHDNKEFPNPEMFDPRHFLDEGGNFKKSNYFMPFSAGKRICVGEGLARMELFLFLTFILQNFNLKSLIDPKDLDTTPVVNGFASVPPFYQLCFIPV
pIC50: −log10 of the molar value.
Listing of entries alongside the reported pIC50.
observation-type: pIC50

# smiles-code, modifier-sign, value-reported
rows = [
    ("Cn1c(=O)n(Cc2ccc(C(=O)O)cc2)c(=O)c2cc(C#CCc3ccccc3)ccc21", "<", 5.60),
    ("Oc1nc(SCc2ccc(Cl)cc2)nc2c1CCC2", "=", 5.19),
    ("Cc1ccc(CSc2nc3c(c(=O)[nH]2)CCC3)cc1", "=", 5.10),
    ("Cc1cc(CNC(=O)c2cc(C(=O)NCc3ccc(F)c(C)c3)ncn2)ccc1F", "<", 4.70),
    ("COC(=O)c1ccc(CSc2nc3c(c(=O)[nH]2)CCC3)cc1", "<", 4.70),
]

* * *

Listing of entries alongside the reported IC50.
Target: UniProt:P11712
Sequence (P11712 whole entry): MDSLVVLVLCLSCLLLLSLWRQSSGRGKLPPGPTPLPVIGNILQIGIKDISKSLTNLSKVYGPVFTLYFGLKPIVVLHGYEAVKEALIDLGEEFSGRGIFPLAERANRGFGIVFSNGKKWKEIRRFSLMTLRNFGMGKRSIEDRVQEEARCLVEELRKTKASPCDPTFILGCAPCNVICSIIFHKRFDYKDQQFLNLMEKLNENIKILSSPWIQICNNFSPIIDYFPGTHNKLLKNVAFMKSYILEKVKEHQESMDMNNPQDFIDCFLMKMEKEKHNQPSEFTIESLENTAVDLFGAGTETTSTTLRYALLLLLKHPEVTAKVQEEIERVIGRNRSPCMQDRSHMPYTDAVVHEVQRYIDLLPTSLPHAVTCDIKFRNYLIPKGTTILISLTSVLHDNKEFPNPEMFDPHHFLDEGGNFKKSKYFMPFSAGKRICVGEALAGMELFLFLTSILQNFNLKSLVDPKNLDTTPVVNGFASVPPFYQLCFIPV

# smiles-code, unit-spec, modifier-sign, IC50
data = [
    ("COC(=O)c1ccc(CSc2nc3c(c(=O)[nH]2)CCC3)cc1", "µM", ">", 20),
    ("Cc1cc(CNC(=O)c2cc(C(=O)NCc3ccc(F)c(C)c3)ncn2)ccc1F", "µM", ">", 20),
    ("Cn1c(=O)n(Cc2ccc(C(=O)O)cc2)c(=O)c2cc(C#CCc3ccccc3)ccc21", "µM", ">", 2.5),
    ("Cc1ccc(CSc2nc3c(c(=O)[nH]2)CCC3)cc1", "µM", "=", 8.8),
    ("Oc1nc(SCc2ccc(Cl)cc2)nc2c1CCC2", "µM", "=", 19),
]

* * *

Target: Cytochrome P450 3A4 (Homo sapiens)
Sequence (P08684 whole entry): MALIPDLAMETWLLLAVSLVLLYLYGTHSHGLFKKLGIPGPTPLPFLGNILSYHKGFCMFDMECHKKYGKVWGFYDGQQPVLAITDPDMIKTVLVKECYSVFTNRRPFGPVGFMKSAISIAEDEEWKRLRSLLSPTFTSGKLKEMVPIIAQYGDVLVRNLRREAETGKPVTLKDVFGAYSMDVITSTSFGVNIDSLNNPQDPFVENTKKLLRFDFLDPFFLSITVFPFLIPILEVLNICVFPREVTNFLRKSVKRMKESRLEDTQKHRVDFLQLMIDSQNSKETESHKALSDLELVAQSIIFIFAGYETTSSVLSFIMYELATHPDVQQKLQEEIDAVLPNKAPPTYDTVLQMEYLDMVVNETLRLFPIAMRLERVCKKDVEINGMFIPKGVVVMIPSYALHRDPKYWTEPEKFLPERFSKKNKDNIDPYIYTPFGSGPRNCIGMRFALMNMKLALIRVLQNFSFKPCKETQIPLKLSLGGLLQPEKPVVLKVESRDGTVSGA
Assay: Inhibition of CYP3A4 (unknown origin) using midazolam substrate
Assay type: ADME

# smiles-code, IC50
measured = [
    ("COC(=O)c1ccc(CSc2nc3c(c(=O)[nH]2)CCC3)cc1", "> 20 µM"),
    ("Cc1ccc(CSc2nc3c(c(=O)[nH]2)CCC3)cc1", "> 20 µM"),
    ("Cn1c(=O)n(Cc2ccc(C(=O)O)cc2)c(=O)c2cc(C#CCc3ccccc3)ccc21", "> 2.5 µM"),
    ("Oc1nc(SCc2ccc(Cl)cc2)nc2c1CCC2", "> 20 µM"),
]

* * *

pIC50: −log10 of the molar value.
Let's go through some pIC50 measurements on Cytochrome P450 2C8 (Homo sapiens, UniProt P10632) together.
Sequence (P10632 whole entry): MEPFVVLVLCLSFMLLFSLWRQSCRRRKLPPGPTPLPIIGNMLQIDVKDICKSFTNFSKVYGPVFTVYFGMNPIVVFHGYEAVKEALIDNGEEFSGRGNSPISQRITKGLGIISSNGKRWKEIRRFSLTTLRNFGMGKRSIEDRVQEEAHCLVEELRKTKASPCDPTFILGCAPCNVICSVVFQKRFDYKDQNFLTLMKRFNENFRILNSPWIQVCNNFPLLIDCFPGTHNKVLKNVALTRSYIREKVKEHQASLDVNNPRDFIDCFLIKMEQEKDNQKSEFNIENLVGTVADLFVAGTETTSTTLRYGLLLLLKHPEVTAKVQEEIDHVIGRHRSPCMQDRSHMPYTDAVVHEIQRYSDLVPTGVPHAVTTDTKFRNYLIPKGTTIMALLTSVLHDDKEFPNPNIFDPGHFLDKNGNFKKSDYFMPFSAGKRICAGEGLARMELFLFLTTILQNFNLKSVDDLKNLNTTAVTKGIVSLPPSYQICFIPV

# smiles-code, pIC50
records = [
    ("Cc1ccc(CSc2nc3c(c(=O)[nH]2)CCC3)cc1", "< 4.70"),
    ("Oc1nc(SCc2ccc(Cl)cc2)nc2c1CCC2", "< 4.70"),
    ("Cn1c(=O)n(Cc2ccc(C(=O)O)cc2)c(=O)c2cc(C#CCc3ccccc3)ccc21", "< 5.60"),
    ("Cc1cc(CNC(=O)c2cc(C(=O)NCc3ccc(F)c(C)c3)ncn2)ccc1F", "< 4.70"),
    ("COC(=O)c1ccc(CSc2nc3c(c(=O)[nH]2)CCC3)cc1", "< 4.70"),
]

* * *

Listing of entries alongside the reported inhibition at 20 µM.
Biological target: CYP3A4 (Homo sapiens)
Sequence (P08684 whole entry): as the sequence (P08684 whole entry) above
Assay: Inhibition of CYP3A4 (unknown origin) using midazolam substrate at 20 uM
Type: ADME
Details: probe midazolam

# smiles-code, inhibition at 20 µM
measured = [
    ("COC(=O)c1ccc(CSc2nc3c(c(=O)[nH]2)CCC3)cc1", "< 50%"),
    ("Cc1cc(CNC(=O)c2cc(C(=O)NCc3ccc(F)c(C)c3)ncn2)ccc1F", "< 50%"),
]
